The reported measurements were obtained from paper PMC10818719.

Test system: MDBK cells
Test: cells
Details: Bos taurus, 24 h
pIC50: −log10 of the molar value.
Assay Readout: pIC50

Smiles Record: CN(C)c1ccc2nc3ccc(=[N+](C)C)cc-3sc2c1
Assay Value: 5.60

====

System: MDBK cells
Conditions: 48 h incubation, no BCoV
Assay Readout: IC50

Smiles Record: Cc1cc2nc3ccc(N(C)C)cc3[s+]c2cc1N.[Cl-]
Assay Readout: IC50
Assay Value: 520 nM
